- Test system: NCI-H1944
- procedureDetails: relative viability (nuclei count vs DMSO), 5 days (fraction); higher = more cells survive
- setupConditions: first compound 8 µM
measure: relative viability

{"columns": ["molecule", "measure", "numericValue"],
 "data": [
  ["Nc1cccc2c1CN(C1CCC(=O)NC1=O)C2=O (centres undefined) [Lenalidomide] + NC(=O)Nc1cc(-c2cccc(F)c2)sc1C(=O)N[C@H]1CCCNC1 [AZD7762] (partner 0.2 µM)", "relative viability", 0.386],
  ["Nc1cccc2c1CN(C1CCC(=O)NC1=O)C2=O (centres undefined) [Lenalidomide] + C[C@@H](Oc1cc(-c2cnn(C3CCNCC3)c2)cnc1N)c1c(Cl)ccc(F)c1Cl [Crizotinib] (partner 1 µM)", "relative viability", 1],
  ["Nc1cccc2c1CN(C1CCC(=O)NC1=O)C2=O (centres undefined) [Lenalidomide] + O=C(CCCCCCC(=O)Nc1ccccc1)NO [Vorinostat] (partner 1 µM)", "relative viability", 0.44],
  ["Nc1cccc2c1CN(C1CCC(=O)NC1=O)C2=O (centres undefined) [Lenalidomide] + C[C@]1(O)C[C@@H](c2nc(-c3ccc4ccc(-c5ccccc5)nc4c3)c3c(N)nccn32)C1 [Linsitinib] (partner 1 µM)", "relative viability", 0.948]
]}

###

- System: HCC-366
- procedureDetails: relative viability (nuclei count vs DMSO), 5 days (fraction); higher = more cells survive
- setupConditions: first compound 2 µM

{"columns": ["compound", "relative viability"],
 "data": [
  ["Cc1csc(=NC2CCCCC2)n1/N=C/c1ccc(O)c(O)c1O [MIM1] + CC(=O)Nc1cccc(-n2c(=O)n(C3CC3)c(=O)c3c(Nc4ccc(I)cc4F)n(C)c(=O)c(C)c32)c1 [Trametinib] (partner 0.02 µM)", 0.3],
  ["Cc1csc(=NC2CCCCC2)n1/N=C/c1ccc(O)c(O)c1O [MIM1] + O=C(c1cc(Cc2n[nH]c(=O)c3ccccc23)ccc1F)N1CCN(C(=O)C2CC2)CC1 [Olaparib] (partner 8 µM)", 0.249],
  ["CN1CCN(CCOc2cc(OC3CCOCC3)c3c(Nc4c(Cl)ccc5c4OCO5)ncnc3c2)CC1 [Saracatinib] + Cc1nc(Nc2ncc(C(=O)Nc3c(C)cccc3Cl)s2)cc(N2CCN(CCO)CC2)n1 [Dasatinib] (partner 0.075 µM)", 0.607],
  ["CN1CCN(CCOc2cc(OC3CCOCC3)c3c(Nc4c(Cl)ccc5c4OCO5)ncnc3c2)CC1 [Saracatinib] + CC(C)C[C@H](NC(=O)[C@H](Cc1ccccc1)NC(=O)c1cnccn1)B(O)O [Bortezomib] (partner 0.002 µM)", 0.769],
  ["Cc1csc(=NC2CCCCC2)n1/N=C/c1ccc(O)c(O)c1O [MIM1] + Nc1nc2[nH]cc(CCc3ccc(C(=O)N[C@@H](CCC(=O)O)C(=O)O)cc3)c2c(=O)[nH]1 [Pemetrexed] (partner 0.2 µM)", 0.176],
  ["CN1CCN(CCOc2cc(OC3CCOCC3)c3c(Nc4c(Cl)ccc5c4OCO5)ncnc3c2)CC1 [Saracatinib] + C[C@]1(O)C[C@@H](c2nc(-c3ccc4ccc(-c5ccccc5)nc4c3)c3c(N)nccn32)C1 [Linsitinib] (partner 1 µM)", 0.13]
]}

###

Entries and their relative viability values follow.
- Tested on: BEN
- procedureDetails: relative viability (nuclei count vs DMSO), 5 days (fraction); higher = more cells survive
- setupConditions: first compound 0.2 µM
measure: relative viability

{"columns": ["compound", "numericValue"],
 "data": [
  ["CN1CCN(CCOc2cc(OC3CCOCC3)c3c(Nc4c(Cl)ccc5c4OCO5)ncnc3c2)CC1 [Saracatinib] + Cc1cc(Nc2cc(N3CCN(C)CC3)nc(Sc3ccc(NC(=O)C4CC4)cc3)n2)n[nH]1 [Tozasertib] (partner 0.1 µM)", 0.477],
  ["Cc1csc(=NC2CCCCC2)n1/N=C/c1ccc(O)c(O)c1O [MIM1] + CS(=O)(=O)CCNCc1ccc(-c2ccc3ncnc(Nc4ccc(OCc5cccc(F)c5)c(Cl)c4)c3c2)o1 [Lapatinib] (partner 2 µM)", 0.732],
  ["CN1CCN(CCOc2cc(OC3CCOCC3)c3c(Nc4c(Cl)ccc5c4OCO5)ncnc3c2)CC1 [Saracatinib] + Nc1ncn([C@H]2C[C@H](O)[C@@H](CO)O2)c(=O)n1 [Decitabine] (partner 2 µM)", 0.778],
  ["Cc1csc(=NC2CCCCC2)n1/N=C/c1ccc(O)c(O)c1O [MIM1] + CC(=O)c1c(C)c2cnc(Nc3ccc(N4CCNCC4)cn3)nc2n(C2CCCC2)c1=O [Palbociclib] (partner 0.5 µM)", 0.507],
  ["CCNC(=O)c1noc(-c2cc(C(C)C)c(O)cc2O)c1-c1ccc(CN2CCOCC2)cc1 [Luminespib] + C[C@@H](Oc1cc(-c2cnn(C3CCNCC3)c2)cnc1N)c1c(Cl)ccc(F)c1Cl [Crizotinib] (partner 1 µM)", 0.203],
  ["Cc1csc(=NC2CCCCC2)n1/N=C/c1ccc(O)c(O)c1O [MIM1] + Nc1nc2[nH]cc(CCc3ccc(C(=O)N[C@@H](CCC(=O)O)C(=O)O)cc3)c2c(=O)[nH]1 [Pemetrexed] (partner 0.2 µM)", 0.792]
]}

###

- Test system: NCI-H1734
- procedureDetails: relative viability (nuclei count vs DMSO), 5 days (fraction); higher = more cells survive
- setupConditions: first compound 8 µM
Decision: relative viability beneath 0.6 gives yes (1); relative viability meeting or exceeding 0.6 gives no (0).

{"columns": ["compound", "classAssignment"],
 "data": [
  ["Nc1cccc2c1CN(C1CCC(=O)NC1=O)C2=O (stereo not drawn) [Lenalidomide] + COc1cc2c(Oc3ccc(NC(=O)C4(C(=O)Nc5ccc(F)cc5)CC4)cc3F)ccnc2cc1OCCCN1CCOCC1 [Foretinib] (partner 0.25 µM)", "no (0)"],
  ["Nc1cccc2c1CN(C1CCC(=O)NC1=O)C2=O (stereo not drawn) [Lenalidomide] + N=C(N)NC(=N)NCCc1ccccc1 [Phenformin] (partner 250 µM)", "yes (1)"],
  ["Nc1cccc2c1CN(C1CCC(=O)NC1=O)C2=O (stereo not drawn) [Lenalidomide] + CCNC(=O)c1noc(-c2cc(C(C)C)c(O)cc2O)c1-c1ccc(CN2CCOCC2)cc1 [Luminespib] (partner 0.01 µM)", "yes (1)"],
  ["Nc1cccc2c1CN(C1CCC(=O)NC1=O)C2=O (stereo not drawn) [Lenalidomide] + CS(=O)(=O)N1CCN(Cc2cc3nc(-c4cccc5[nH]ncc45)nc(N4CCOCC4)c3s2)CC1 [Pictilisib] (partner 1 µM)", "yes (1)"],
  ["Nc1cccc2c1CN(C1CCC(=O)NC1=O)C2=O (stereo not drawn) [Lenalidomide] + Cc1nc(Nc2ncc(C(=O)Nc3c(C)cccc3Cl)s2)cc(N2CCN(CCO)CC2)n1 [Dasatinib] (partner 0.075 µM)", "yes (1)"],
  ["Nc1cccc2c1CN(C1CCC(=O)NC1=O)C2=O (stereo not drawn) [Lenalidomide] + O=C(c1cc(Cc2n[nH]c(=O)c3ccccc23)ccc1F)N1CCN(C(=O)C2CC2)CC1 [Olaparib] (partner 8 µM)", "yes (1)"]
]}

###

- Test system: ABC-1
- procedureDetails: relative viability (nuclei count vs DMSO), 5 days (fraction); higher = more cells survive
- setupConditions: first compound 0.2 µM

{"columns": ["molecule", "relative viability"],
 "data": [
  ["Cc1csc(=NC2CCCCC2)n1/N=C/c1ccc(O)c(O)c1O [MIM1] + Cc1cc(Nc2cc(N3CCN(C)CC3)nc(Sc3ccc(NC(=O)C4CC4)cc3)n2)n[nH]1 [Tozasertib] (partner 0.1 µM)", 0.228],
  ["Cc1csc(=NC2CCCCC2)n1/N=C/c1ccc(O)c(O)c1O [MIM1] + COc1cc2c(Oc3ccc(NC(=O)C4(C(=O)Nc5ccc(F)cc5)CC4)cc3F)ccnc2cc1OCCCN1CCOCC1 [Foretinib] (partner 0.25 µM)", 1.05],
  ["CN1CCN(CCOc2cc(OC3CCOCC3)c3c(Nc4c(Cl)ccc5c4OCO5)ncnc3c2)CC1 [Saracatinib] + Cc1cc(Nc2cc(N3CCN(C)CC3)nc(Sc3ccc(NC(=O)C4CC4)cc3)n2)n[nH]1 [Tozasertib] (partner 0.1 µM)", 0.164],
  ["Cc1csc(=NC2CCCCC2)n1/N=C/c1ccc(O)c(O)c1O [MIM1] + CC(C)C[C@H](NC(=O)[C@H](Cc1ccccc1)NC(=O)c1cnccn1)B(O)O [Bortezomib] (partner 0.002 µM)", 0.33],
  ["CCNC(=O)c1noc(-c2cc(C(C)C)c(O)cc2O)c1-c1ccc(CN2CCOCC2)cc1 [Luminespib] + O=C(CCCCCCC(=O)Nc1ccccc1)NO [Vorinostat] (partner 1 µM)", 0.325]
]}

###

- System: NCI-H1563
- procedureDetails: relative viability (nuclei count vs DMSO), 5 days (fraction); higher = more cells survive
- setupConditions: first compound 2.53 µM
Decision: relative viability beneath 0.8 gives Y; relative viability meeting or exceeding 0.8 gives N.

{"columns": ["molecule", "classAssignment"],
 "data": [
  ["Nc1cccc2c1CN(C1CCC(=O)NC1=O)C2=O (stereo unspecified) [Lenalidomide] + Nc1nc2[nH]cc(CCc3ccc(C(=O)N[C@@H](CCC(=O)O)C(=O)O)cc3)c2c(=O)[nH]1 [Pemetrexed] (partner 0.2 µM)", "N"],
  ["Nc1cccc2c1CN(C1CCC(=O)NC1=O)C2=O (stereo unspecified) [Lenalidomide] + Cc1nc(NC(=O)N2CCC[C@H]2C(N)=O)sc1-c1ccnc(C(C)(C)C(F)(F)F)c1 [Alpelisib] (partner 2 µM)", "N"],
  ["Nc1cccc2c1CN(C1CCC(=O)NC1=O)C2=O (stereo unspecified) [Lenalidomide] + N=C(N)NC(=N)NCCc1ccccc1 [Phenformin] (partner 250 µM)", "Y"],
  ["Nc1cccc2c1CN(C1CCC(=O)NC1=O)C2=O (stereo unspecified) [Lenalidomide] + Cc1nc(Nc2ncc(C(=O)Nc3c(C)cccc3Cl)s2)cc(N2CCN(CCO)CC2)n1 [Dasatinib] (partner 0.075 µM)", "Y"]
]}
